Would you kindly list protein stability index for each of these variants?
B1: TRIM35 (parent)
chain: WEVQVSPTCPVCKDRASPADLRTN

# Variants of: B1
# Procedure Details: protein stability index of a GFP-peptide fusion (GPS, HEK-293T) (PSI 1-6); higher = more stable;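 note: lentivirally expressed fusions sorted by FACS into six bins by GFP to DsRed ratio, PSI derived from sequencing read proportions per bin multiplied by bin number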
# Setup Conditions: c terminus: a fixed tail appended
Response field accepts a number only; no unit should be typed.

The variant identified as `V5L` registered its protein stability index at 2.29

The variant identified as `N24A` registered its protein stability index at 2.29

The variant identified as `P18Q` registered its protein stability index at 2.13

The variant identified as `P18G` registered its protein stability index at 2.51

The variant identified as `C9R` registered its protein stability index at 4.04

The variant identified as `V11M` registered its protein stability index at 1.23

The variant identified as `S6A` registered its protein stability index at 1.87

The variant identified as `N24H` registered its protein stability index at 1.42

The variant identified as `D14C` registered its protein stability index at 1.03

The variant identified as `C9G` registered its protein stability index at 3.97

The variant identified as `C9P` registered its protein stability index at 3.11

The variant identified as `C12T` registered its protein stability index at 4.54

The variant identified as `V5Q` registered its protein stability index at 3.37

The variant identified as `D20I` registered its protein stability index at 1.47

The variant identified as `P7T` registered its protein stability index at 1.58

The variant identified as `V3H` registered its protein stability index at 3.16

The variant identified as `A19H` registered its protein stability index at 2.24

The variant identified as `V5I` registered its protein stability index at 2.27

The variant identified as `T23W` registered its protein stability index at 2.02

The variant identified as `T23Y` registered its protein stability index at 1.73

The variant identified as `P7Y` registered its protein stability index at 2.31

The variant identified as `T23V` registered its protein stability index at 2.06

The variant identified as `R22F` registered its protein stability index at 2.22

The variant identified as `V5T` registered its protein stability index at 3.03

The variant identified as `L21T` registered its protein stability index at 2.62

The variant identified as `P18W` registered its protein stability index at 1.39

The variant identified as `T23N` registered its protein stability index at 2.74

The variant identified as `A19D` registered its protein stability index at 3.38

The variant identified as `V3C` registered its protein stability index at 2.11

The variant identified as `R22E` registered its protein stability index at 4.1

The variant identified as `D14T` registered its protein stability index at 1.83

The variant identified as `P18F` registered its protein stability index at 1.95

The variant identified as `S6F` registered its protein stability index at 2.4

The variant identified as `S6L` registered its protein stability index at 2.6

The variant identified as `D14I` registered its protein stability index at 1.93

The variant identified as `C9H` registered its protein stability index at 3.74

The variant identified as `D20L` registered its protein stability index at 2.15

The variant identified as `A19L` registered its protein stability index at 2.12

The variant identified as `E2S` registered its protein stability index at 2.58

The variant identified as `D14L` registered its protein stability index at 2.62

The variant identified as `K13Y` registered its protein stability index at 2.05

The variant identified as `W1G` registered its protein stability index at 2.92

The variant identified as `S17T` registered its protein stability index at 2.05

The variant identified as `R15C` registered its protein stability index at 2.26

The variant identified as `W1P` registered its protein stability index at 3.29

The variant identified as `L21F` registered its protein stability index at 2

The variant identified as `A19T` registered its protein stability index at 1.75

The variant identified as `V3I` registered its protein stability index at 2.89

The variant identified as `D14Y` registered its protein stability index at 1.62

The variant identified as `P10T` registered its protein stability index at 2.38

The variant identified as `R15Y` registered its protein stability index at 2.34

The variant identified as `P10H` registered its protein stability index at 2.81

The variant identified as `S17P` registered its protein stability index at 2.83

The variant identified as `Q4Y` registered its protein stability index at 3.38

The variant identified as `D14S` registered its protein stability index at 2.5

The variant identified as `A16P` registered its protein stability index at 2.29

The variant identified as `K13L` registered its protein stability index at 3.25

The variant identified as `W1L` registered its protein stability index at 3.13

The variant identified as `Q4W` registered its protein stability index at 1.48

The variant identified as `C9M` registered its protein stability index at 3.15

The variant identified as `R15T` registered its protein stability index at 2.54

The variant identified as `V5P` registered its protein stability index at 1.68

All figures here come from the supplement of paper PMC10567573.
